FYI, the data here is from ChEMBL document CHEMBL3351225.

tested target: Coagulation factor X (Homo sapiens)
Sequence (P00742 41-179 limits assumed): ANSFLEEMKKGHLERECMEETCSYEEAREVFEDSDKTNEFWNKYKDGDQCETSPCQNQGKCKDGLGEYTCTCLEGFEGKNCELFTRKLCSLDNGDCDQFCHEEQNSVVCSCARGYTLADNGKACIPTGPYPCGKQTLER
Sequence (P00742 235-488 limits assumed): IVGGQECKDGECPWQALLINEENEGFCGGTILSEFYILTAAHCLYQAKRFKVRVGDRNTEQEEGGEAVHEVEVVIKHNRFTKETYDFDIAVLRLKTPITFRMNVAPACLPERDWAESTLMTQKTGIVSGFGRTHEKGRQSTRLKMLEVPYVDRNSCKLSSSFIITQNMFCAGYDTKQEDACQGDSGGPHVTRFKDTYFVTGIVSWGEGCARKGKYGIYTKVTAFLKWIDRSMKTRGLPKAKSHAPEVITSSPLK
experiment: Inhibition of human factor 10a using N-Z-D-Arg-Gly-Arg-pNA, S-2765 chromogenic substrate
pIC50: −log10 of the molar value.
// label = label 1 if pIC50 is not less than 7, otherwise label 0

Solved cases (3 shown):
INSERT INTO measurements (structure, discrete_label) VALUES
  ('O=C(NC[C@@H]1OC(=O)N2c3ccc(N4CCOCC4=O)cc3NC[C@@H]12)c1ccc(Cl)s1', 'label 1'),
  ('O=C(NC[C@@H]1OC(=O)N2c3ccc(N4CCOCC4=O)cc3OC[C@@H]12)c1cc2ccc(Cl)cc2s1', 'label 0'),
  ('O=C(NC[C@@H]1OC(=O)N2c3ccc(N4CCOCC4=O)cc3S(=O)(=O)C[C@@H]12)c1ccc(Cl)s1', 'label 1');

Req: Quick check: does O=C(NC[C@@H]1OC(=O)N2c3ccc(N4CCOCC4=O)cc3CC[C@@H]12)c1ccc(Cl)s1 have pIC50 greater than or equal to 7?
Resp: label 1

* * *

experiment: Tmax in Sprague-Dawley rat at 3 mg/kg, po
Type: ADME, organism-based
Set-up: dose 3 mg/kg, route oral
assay context: in vivo
parameter: Tmax (min)
Please reply with the bare figure in min and do not write the unit itself.

Req: Give the measured Tmax for O=C(NC[C@H]1CN(c2ccc(N3CCOCC3=O)cc2)C(=O)O1)c1ccc(Cl)s1
Resp: 52.8

* * *

Tmax values by entry
experiment: Tmax in Sprague-Dawley rat at 10 mg/kg, po
Format: ADME, organism-based
Design: dose 10 mg/kg, route oral
assay context: in vivo
Please reply with the bare figure in h and do not write the unit itself.

# annotated cases, reported Tmax shown
INSERT INTO assay_data (structure, unit_abbreviation, test_value) VALUES
  ('O=C(NC[C@@H]1OC(=O)N2c3ccc(N4CCOCC4=O)cc3NC[C@@H]12)c1ccc(Cl)s1', 'h', 0.44),
  ('O=C(NC[C@@H]1OC(=O)N2c3ccc(N4CCOCC4=O)cc3S(=O)(=O)C[C@@H]12)c1ccc(Cl)s1', 'h', 0.38),
  ('NS(=O)(=O)c1ccccc1-c1ccc2c(c1)OC[C@H]1[C@H](CNC(=O)c3ccc(Cl)s3)OC(=O)N21', 'h', 1),
  ('O=C(NC[C@@H]1OC(=O)N2c3ccc(N4CCOCC4=O)cc3CC[C@@H]12)c1ccc(Cl)s1', 'h', 2.3);

Continue with the next molecule.
Req: Give the measured Tmax for O=C(NC[C@@H]1OC(=O)N2c3ccc(N4CCOCC4=O)cc3SC[C@@H]12)c1ccc(Cl)s1
Resp: 4

* * *

experiment: Plasma clearance in Sprague-Dawley rat at 3 mg/kg, iv
Type: ADME, organism-based
Parameters: dose 3 mg/kg, route intravenous
parameter: clearance (mL/min/kg)
Please reply with the bare figure in mL/min/kg and do not write the unit itself.

# annotated cases, reported clearance shown
INSERT INTO assay_data (structure, unit_abbreviation, test_value) VALUES
  ('O=C(NC[C@@H]1OC(=O)N2c3ccc(N4CCOCC4=O)cc3OC[C@@H]12)c1ccc(Cl)s1', 'mL/min/kg', 3.35),
  ('NS(=O)(=O)c1ccccc1-c1ccc2c(c1)OC[C@H]1[C@H](CNC(=O)c3ccc(Cl)s3)OC(=O)N21', 'mL/min/kg', 4.22);

Continue with the next molecule.
Req: Give the measured clearance for O=C(NC[C@@H]1OC(=O)N2c3ccc(N4CCOCC4=O)cc3NC[C@@H]12)c1ccc(Cl)s1
Resp: 9.22

* * *

experiment: Oral bioavailability in Beagle dog at 1 mg/kg
Assay type: ADME, organism-based, Canis lupus familiaris
assay context: in vivo
parameter: bioavailability (%)
Please reply with the bare figure in % and do not write the unit itself.

INSERT INTO assay_data (structure, test_value) VALUES
  ('O=C(NC[C@@H]1OC(=O)N2c3ccc(N4CCOCC4=O)cc3OC[C@@H]12)c1ccc(Cl)s1', 92);

Continue with the next compound.
Req: Give the measured bioavailability for O=C(NC[C@H]1CN(c2ccc(N3CCOCC3=O)cc2)C(=O)O1)c1ccc(Cl)s1
Resp: 68

* * *

experiment: Plasma clearance in Sprague-Dawley rat at 3 mg/kg, iv
Format: ADME, organism-based
Parameters: dose 3 mg/kg, route intravenous
clearance values by entry
Please reply with the bare figure in mL/min/kg and do not write the unit itself.

# annotated cases, reported clearance shown
INSERT INTO measurements (structure, test_value) VALUES
  ('O=C(NC[C@@H]1OC(=O)N2c3ccc(N4CCOCC4=O)cc3S(=O)(=O)C[C@@H]12)c1ccc(Cl)s1', 8.22),
  ('O=C(NC[C@@H]1OC(=O)N2c3ccc(N4CCOCC4=O)cc3CC[C@@H]12)c1ccc(Cl)s1', 2.48),
  ('O=C(NC[C@H]1CN(c2ccc(N3CCOCC3=O)cc2)C(=O)O1)c1ccc(Cl)s1', 5.05);

Continue with the next compound.
Req: Give the measured clearance for O=C(NC[C@@H]1OC(=O)N2c3ccc(N4CCOCC4=O)cc3SC[C@@H]12)c1ccc(Cl)s1
Resp: 8.82

* * *

experiment: Elimination half life in Sprague-Dawley rat at 3 mg/kg, iv
Format: ADME, organism-based
Parameters: dose 3 mg/kg, route intravenous
assay context: in vivo, read-out: beta t1/2 (converted)
Please respond with label 1 when measured half-life is strictly beneath 80 min, and with label 0 in all other cases.

Req: Report whether reported half-life is lower than 80 min (strictly) for O=C(NC[C@H]1CN(c2ccc(N3CCOCC3=O)cc2)C(=O)O1)c1ccc(Cl)s1 [RIVAROXABAN]
Resp: label 1

Req: Report whether reported half-life is lower than 80 min (strictly) for NS(=O)(=O)c1ccccc1-c1ccc2c(c1)OC[C@H]1[C@H](CNC(=O)c3ccc(Cl)s3)OC(=O)N21
Resp: label 0

Req: Report whether reported half-life is lower than 80 min (strictly) for O=C(NC[C@@H]1OC(=O)N2c3ccc(N4CCOCC4=O)cc3SC[C@@H]12)c1ccc(Cl)s1
Resp: label 1

Req: Report whether reported half-life is lower than 80 min (strictly) for O=C(NC[C@@H]1OC(=O)N2c3ccc(N4CCOCC4=O)cc3CC[C@@H]12)c1ccc(Cl)s1
Resp: label 1

Req: Report whether reported half-life is lower than 80 min (strictly) for O=C(NC[C@@H]1OC(=O)N2c3ccc(N4CCOCC4=O)cc3NC[C@@H]12)c1ccc(Cl)s1
Resp: label 1

Req: Report whether reported half-life is lower than 80 min (strictly) for O=C(NC[C@@H]1OC(=O)N2c3ccc(N4CCOCC4=O)cc3S(=O)(=O)C[C@@H]12)c1ccc(Cl)s1
Resp: label 1

* * *

experiment: Elimination half life in Sprague-Dawley rat at 4.5 mg/kg, iv
Format: ADME, organism-based
Design: dose 4.5 mg/kg, route intravenous
assay context: in vivo, read-out: beta t1/2 (converted)
parameter: half-life (min)
Please reply with the bare figure in min and do not write the unit itself.

Req: Give the measured half-life for CS(=O)(=O)c1ccccc1-c1ccc2c(c1)OC[C@H]1[C@H](CNC(=O)c3ccc(Cl)s3)OC(=O)N21
Resp: 52.8

* * *

experiment: Oral bioavailability in Sprague-Dawley rat at 10 mg/kg
Format: ADME, organism-based
assay context: in vivo
parameter: bioavailability
// unit must come after the numeric part

INSERT INTO measurements (structure, parameter, test_value) VALUES
  ('O=C(NC[C@@H]1OC(=O)N2c3ccc(N4CCOCC4=O)cc3NC[C@@H]12)c1ccc(Cl)s1', 'bioavailability', '6.8%'),
  ('O=C(NC[C@@H]1OC(=O)N2c3ccc(N4CCOCC4=O)cc3S(=O)(=O)C[C@@H]12)c1ccc(Cl)s1', 'bioavailability', '7.3%'),
  ('O=C(NC[C@@H]1OC(=O)N2c3ccc(N4CCOCC4=O)cc3CC[C@@H]12)c1ccc(Cl)s1', 'bioavailability', '20.4%'),
  ('NS(=O)(=O)c1ccccc1-c1ccc2c(c1)OC[C@H]1[C@H](CNC(=O)c3ccc(Cl)s3)OC(=O)N21', 'bioavailability', '29%');

Req: Give the measured bioavailability for O=C(NC[C@@H]1OC(=O)N2c3ccc(N4CCOCC4=O)cc3OC[C@@H]12)c1ccc(Cl)s1
Resp: 63.7%

Req: Give the measured bioavailability for O=C(NC[C@@H]1OC(=O)N2c3ccc(N4CCOCC4=O)cc3SC[C@@H]12)c1ccc(Cl)s1
Resp: 7.4%

* * *

AUC(0-inf) values by entry
experiment: AUC (0 to infinity) in Sprague-Dawley rat at 10 mg/kg, po
Type: ADME, organism-based
Set-up: time infinity, dose 10 mg/kg, route oral
assay context: plasma
// unit must come after the numeric part

# annotated cases, reported AUC(0-inf) shown
INSERT INTO results (structure, test_value) VALUES
  ('NS(=O)(=O)c1ccccc1-c1ccc2c(c1)OC[C@H]1[C@H](CNC(=O)c3ccc(Cl)s3)OC(=O)N21', '12300 ng·h/mL'),
  ('O=C(NC[C@@H]1OC(=O)N2c3ccc(N4CCOCC4=O)cc3S(=O)(=O)C[C@@H]12)c1ccc(Cl)s1', '1540 ng·h/mL');

Continue with the next compound.
Req: Give the measured AUC(0-inf) for O=C(NC[C@@H]1OC(=O)N2c3ccc(N4CCOCC4=O)cc3CC[C@@H]12)c1ccc(Cl)s1
Resp: 14200 ng·h/mL
